test system: SNB-75; assay: NCI tumour cell line growth inhibition, 48 h
Calls of active or inactive are those of the source. Rule as the data show it: active = GI50 up to about 1.1 µM and inactive = higher.
readout.type: GI50

COc1ccc(/C(=N/O)C(c2ccc(OC)cc2)C2C(=O)Oc3ccccc32)cc1 (centres undefined) :: 82.8 µM (inactive)
CC1=CC(O)C(C(O)(C(F)(F)F)C(F)(F)F)C(C)(C)C1 (centres undefined) :: > 10 µM (inactive)
COc1ccc(-c2c3ccccc3c(-c3ccc(OC)cc3)c3ccccc23)cc1 :: 29.5 µM (inactive)
C=C1C(=O)OC2/C=C(\C)CC(O)/C=C(/CO)CC(OC(=O)/C(C)=C/C)C12 (centres undefined) :: 133 µM (inactive)
CCCCCCCCCC(=O)OCC1(CO)C/C(=C/CC(C(C)C)C(C)C)C(=O)O1 (centres undefined) :: 78 µM (inactive)
Cc1ccc(/N=N/c2c(C)nn(C(=O)CC(=O)Nc3ccccc3)c2C)cc1C :: 59.7 µM (inactive)
COc1ccc2nc3cc(Cl)ccc3c(SCC(=O)Nc3ccccc3-c3ccccc3NC(=O)CSc3c4ccc(Cl)cc4nc4ccc(OC)cc34)c2c1 :: > 100 µM (inactive)
CN(C(=O)c1cccs1)C(=S)N1CCN(c2ccccc2)CC1 :: > 100 µM (inactive)

For the next question, use this molecule.
// sample CCCN(CCC)C(=O)Cc1c2n(c3ccccc13)Cc1ccccc1-2 , its GI50 was 6.62 µM (inactive)

====

test system: UO-31; experiment: NCI tumour cell line growth inhibition, 48 h
Active and inactive are the calls of the source. Rule as the data show it: active = GI50 up to about 1.1 µM and inactive = higher.
Lab note: assign the record to one of 1 = active, -1 = inactive

COc1ccc2[nH]c3c4c(ccc3c2c1)C(=O)C=CC4=O :: -1
CC12CC(=O)NN=C1c1ccccc1C2 (stereo not drawn) :: -1
COc1cc([N+](=O)[O-])ccc1NC(=O)C(F)(F)F :: -1

# fetch the recorded call for COc1cc(C2c3cc4c(cc3OC(NCc3ccccc3)C2C)OCO4)cc(OC)c1OC (stereo not drawn) here
1

How did this test come out for Nc1c(-c2nc3ccccc3[nH]2)sc(=S)n1-c1ccccc1 ?
-1

Name the outcome recorded for COc1cc(C=O)ccc1Oc1nnnn1-c1ccccc1 in the assay.
-1

Kindly provide the recorded test outcome for the following compound: Cc1cccc(-n2c(=S)[nH]c3c(sc(=O)n3-c3ccccc3C)c2=O)c1
-1

Query: recorded result category for NC(=O)c1c[se]c(C2OC(CO)C(O)C2O)n1 (stereo not drawn) in this test
-1

Outcome? CNc1nnc(CCCCCCCCc2nnc(NC)o2)o1
-1

Hey, what did the test say about COc1ccc(CC2C(=O)NC(C)C(=O)N(C)C3C(=O)N(C)C(Cc4ccc(O)c(c4)Oc4ccc(cc4)C3O)C(=O)NC(C)C(=O)NC(C)C(=O)N2C)cc1 (stereo not drawn) ?
1

====

tested on: SNB-19; test: NCI tumour cell line growth inhibition, 48 h
Activity calls are given as the source filed them. Cut-off read from the data, not from the text of the source: active = GI50 up to about 1.1 µM and inactive = higher.
Could you please report measured GI50 for the items listed next?

Observe how each entry below is paired with its result.
CN(C)CCCNc1ccc2nnn3c4ccc([N+](=O)[O-])cc4c(=O)c1c23 :: 2.73 µM (inactive)
COC(=O)CP1(=O)OC2C(C3CCC2(C)C3(C)C)N1c1cc(C(F)(F)F)cc(C(F)(F)F)c1 (centres undefined) :: 32.7 µM (inactive)
C=CCC1C2CCC(O[Si](C(C)C)(C(C)C)C(C)C)(C(C(=O)OC)C2)C1O (centres undefined) :: > 100 µM (inactive)
N=C(N)NS(=O)(=O)c1ccc(NC(=O)c2ccc3nc4ccccc4c(Nc4ccc(S(=O)(=O)N=C(N)N)cc4)c3c2)cc1 :: > 100 µM (inactive)
COc1ccc2nc(/C(N)=C\C#N)ccc2c1 :: > 100 µM (inactive)

Give GI50 for all compounds that follow.
1. CN(C)CCNC(=O)Cn1ccc(=O)c2c([N+](=O)[O-])cccc21
2. COC(=O)/C=C/c1cnc2c(c1)oc(=O)n2C
3. O=C(Nc1ccc([N+](=O)[O-])cc1[N+](=O)[O-])C(=O)C(C(=O)c1ccc(Cl)c(Cl)c1)C1OC(=O)c2ccccc21 (centres undefined)

> 100 µM (inactive)
> 100 µM (inactive)
18.6 µM (inactive)

Reported GI50 (SNB-19) for entry O=S1(=O)OCCOS(=O)(=O)C1(F)Br is > 100 µM (inactive)

Where these numbers come from: ChEMBL document CHEMBL1201862
